meta.source: patent US20240246954A1

The molecules listed here are annotated with their pIC50.
Target: Avi-KRAS G12D (1-169) GppNHp/RAF1 RBD-3×FLAG (52-151) (Homo sapiens, UniProt P01116, G12D)
Construct: Avi-KRAS G12D (1-169) GppNHp
Sequence (P01116 1-169 isoform P01116-2 G12D limits assumed): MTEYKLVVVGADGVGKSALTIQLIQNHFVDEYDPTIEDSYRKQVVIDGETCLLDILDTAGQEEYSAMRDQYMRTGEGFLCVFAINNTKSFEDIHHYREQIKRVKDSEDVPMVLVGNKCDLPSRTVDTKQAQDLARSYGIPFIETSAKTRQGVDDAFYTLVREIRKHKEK
Experiment: HTRF Raf1-KRAS G12D-GppNHp disruption assay
Conditions: 1 h incubation
pIC50: −log10 of the molar value.

Request: Any idea what pIC50 came out for Nc1nc2c(-c3c(C(F)(F)F)cc4c(N[C@H]5CCC[C@H](N)C5)nc(OCC56CCCN5CCC6)nc4c3F)ccc(F)c2s1 [Compound 328] on Avi-KRAS G12D (1-169) GppNHp/RAF1 RBD-3×FLAG (52-151) (Homo sapiens, UniProt P01116, G12D)?
Result: 5.00 to 6.00

Request: Any idea what pIC50 came out for CN(c1nc(OC[C@@]23CCCN2C[C@H](F)C3)nc2c(F)c(-c3ccc(F)c4sc(N)c(C#N)c34)c(Cl)cc12)[C@@H]1CCNC1 [Compound 379] on Avi-KRAS G12D (1-169) GppNHp/RAF1 RBD-3×FLAG (52-151) (Homo sapiens, UniProt P01116, G12D)?
Result: 6.00 to 7.00

Request: Any idea what pIC50 came out for N#CCCN1CCC[C@H]1COc1nc(NC2CNC2)c2cc(Cl)c(-c3ccc(F)c4sc(N)nc34)c(F)c2n1 [Compound 178] on Avi-KRAS G12D (1-169) GppNHp/RAF1 RBD-3×FLAG (52-151) (Homo sapiens, UniProt P01116, G12D)?
Result: 4.52 to 5.00
